Assay: Selectivity index, ratio of IC50 for cytotoxicity against chinese hamster CHO cells to IC50 for antiplasmodial activity against Plasmodium falciparum 3D7 infected in human erythrocytes by HRP2-ELISA
Type: toxicity, cell-based
Details: read-out: Ratio IC50
Measure: selectivity ratio
API note: the answer field is a bare number with no unit suffix.

Worked cases, answers included:
O[C@H](CNCCCC(F)(F)F)c1cc(C(F)(F)F)nc2c(C(F)(F)F)cccc12 = 2560
OC[C@H](Cc1ccccc1)NC[C@@H](O)c1cc(C(F)(F)F)nc2c(C(F)(F)F)cccc12 = 511
O[C@@H](CNCCNC(c1ccccc1)c1ccccc1)c1cc(C(F)(F)F)nc2c(C(F)(F)F)cccc12 = 233

# ---- query compound ----
Which selectivity ratio is listed for OC[C@H](Cc1ccccc1)NC[C@H](O)c1cc(C(F)(F)F)nc2c(C(F)(F)F)cccc12 (single isomer, unassigned) ?
470

----------
System: Plasmodium falciparum
Assay: Antiplasmodial activity against CQ-susceptible Plasmodium falciparum 3D7 assessed as inhibition of parasite growth measured after 48 hrs by SYBR Green 1 dye based fluorescence assay
Format: functional, organism-based
Settings: 3D7, 48 h
pIC50: −log10 of the molar value.
List of pIC50 values.

See these solved cases before continuing.
OCCN1CCN(C[C@@H](O)c2cc(C(F)(F)F)nc3c(C(F)(F)F)cccc23)CC1 = < 6.00
OCCN1CCN(C[C@H](O)c2cc(C(F)(F)F)nc3c(C(F)(F)F)cccc23)CC1 = < 6.00
O[C@H](CN1CCN(Cc2cccc3ccccc23)CC1)c1cc(C(F)(F)F)nc2c(C(F)(F)F)cccc12 = < 6.00
O[C@@H](CN1CCNCC1)c1cc(C(F)(F)F)nc2c(C(F)(F)F)cccc12 = < 6.00

Now for a further compound.
Param item = O[C@@H](CN1CCN(C[C@H](O)c2cc(C(F)(F)F)nc3c(C(F)(F)F)cccc23)CC1)c1cc(C(F)(F)F)nc2c(C(F)(F)F)cccc12 ; retrieve measured pIC50.
< 6.00

Value source: ChEMBL document CHEMBL5154649
